Test: amyloid nucleation score (Sup35N fusion, yeast selection) (log enrichment); library NNK1; higher = more nucleation; inactive = no reads after selection;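 also: zero at mode of non-aggregating sequences after 7 days selection at 30°C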
Hi, to clarify the labels: MET covers amyloid nucleation score from 0.3 upward, NOT MET covers anything below 0.3.

Example entries and their recorded answers appear below.
MCLLKGGSLVIVCGSGH; MET
NINPLFI; MET
RGCVGRSFSDEES; NOT MET
LMQSCWSFHYNRLASLLRHT; NOT MET
DSGVAVQMFEQTTGDPGIEG; NOT MET

// query Test whether the substance "YTPMTTSWLLPSLEINI" records amyloid nucleation score of 0.3 or higher.
// result NOT MET
